Item-by-item account of EC50
- Assay target: recombinantly produced human-NGF (human, UniProt P01138 122-241, limits assumed)
- Sequence (P01138 122-241 limits assumed): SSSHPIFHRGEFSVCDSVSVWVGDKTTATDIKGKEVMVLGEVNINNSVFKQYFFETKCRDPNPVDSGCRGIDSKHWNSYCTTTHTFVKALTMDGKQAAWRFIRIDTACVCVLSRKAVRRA
- Protocol details: ELISA, human NGF coated, IgG titrated
Numbers only here, please. The scale is ng/mL.

Here is how some binders turned out for EC50.
| Binder | EC50 (ng/mL) |
| --- | --- |
| Ab42 (antibody, human IgG1, V domains shown) VH: EVQLVQSGAEVKKPGESLKISCKGSGYSFITYWISWVRQMPGKGLEWMGAIDPSDSDARYSPSFQGQVTISADKSISTAYLQWSSLKASDTAMYYCAKSDPGYSGYSLLYGFDSWGQGTLVTVSS VL: DIVMTQTPLSSPVTLGQPASISCRSSQSLVQRNGNTYLSWYQQRPGQPPRLLIYQVSNRYSGVPDRFSGSGAGTDFTLKISRVEAEDVGVYYCGQGAHLPLTFGQGTKVEIK | 0.0132 |
| Ab36 (antibody, human IgG1, V domains shown) VH: EVQLVQSGAEVKKPGATVKISCKVSGYTFITYWISWVQQAPGKGLEWMGAIDPSDSDARYSPSFQGRVTITADKSTDTAYMELSSLRSEDTAVYYCAKSDPGYSGYSLLYGFDSWGQGTLVTVSS VL: DVVMTQSPLSLPVTLGQPASISCRSSQSLVQRNGNTYLSWFQQRPGQPPRLLIYQVSNRYSGVPDRFSGSGSGTDFTLKISRVEAEDVGVYYCGQGAHLPLTFGQGTKVEIK | 0.0218 |
| Ab27 (antibody, human IgG1, V domains shown) VH: EVQLVQSGAEVKKPGATVKISCKVSGYSFITYWISWVQQAPGKGLEWMGAIDPSDSDARYSPSFQGRVTITADKSTDTAYMELSSLRSEDTAVYYCAKSDPGYSGYSLLYGFDSWGQGTLVTVSS VL: DIVMTQSPLSLPVTLGQPASISCRSSQSLVQRNGNTYLSWFQQRPGQSPRLLIYQVSNRYSGVPDRFSGSGSGTDFTLKISRVEAEDVGVYYCGQGAHLPLTFGQGTKVEIK | 0.0206 |

q: Look at this binder and give its reported EC50. Ab5 (antibody, human IgG1, V domains shown) VH: EVQLVQSGAEVKKPGATVKISCKVSGYTFITYWISWVQQAPGKGLEWMGAIDPSDSDARYSPSFQGRVTITADTSTDTAYMELSSLRSEDTAVYYCAKSDPGYSGYSLLYGFDSWGQGTLVTVSS VL: DVVMTQSPLSLPVTLGQPASISCRSSQSLVQRNGNTYLSWYQQRPGQPPRLLIYQVSNRYSGVPDRFSGSGSGTDFTLKISRVEAEDVGVYYCGQGAHLPLTFGQGTKVEIK
a: 0.0139

q: Now consider Ab47 (antibody, human IgG1, V domains shown) VH: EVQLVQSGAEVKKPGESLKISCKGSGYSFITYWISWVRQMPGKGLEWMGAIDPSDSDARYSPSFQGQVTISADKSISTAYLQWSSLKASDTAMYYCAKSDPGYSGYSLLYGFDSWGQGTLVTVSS VL: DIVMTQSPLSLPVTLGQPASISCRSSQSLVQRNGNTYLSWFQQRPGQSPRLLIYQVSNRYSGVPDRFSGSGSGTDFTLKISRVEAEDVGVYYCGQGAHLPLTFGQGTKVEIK and answer again.
a: 0.00942
